target: Toll-like receptor 4 (Homo sapiens); assay: Activation of human TLR4 fransfectoma in HEK Blue cells at 0.5 uM relative to LPS; assay type: cell-based; details: HEK293
property_label: Activity (%)
Your answer is read as %, so omit the unit and give the number.

Exercise: Sample CCOC(=O)c1nc(Nc2cc(N)cc(Oc3ccccc3)c2)c2ccccc2n1 — what was its Activity?
Solution: 0.6

Exercise: Give the measured Activity of CCOC(=O)c1nc(Nc2cc(Oc3ccccc3Br)cc([N+](=O)[O-])c2)c2ccccc2n1 .
Solution: 79

Exercise: Which Activity value belongs to CC(C)OC(=O)c1nc(Nc2cc(Oc3ccccc3)cc([N+](=O)[O-])c2)c2ccccc2n1 ?
Solution: 7.4

Exercise: Given the compound CCOC(=O)c1nc(Nc2cc(Oc3ccc(C)cc3)cc([N+](=O)[O-])c2)c2ccccc2n1 , what is its reported Activity?
Solution: 0.5

Exercise: Which value of Activity has been reported for CCOC(=O)c1nc(Nc2cc(Oc3cccc(C)c3)cc([N+](=O)[O-])c2)c2ccccc2n1 in the records?
Solution: 14.5

###

biological target: Toll-like receptor 4 (Homo sapiens) (UniProt O00206); experiment: Activation of human TLR4 fransfectoma in HEK Blue cells at 0.5 uM relative to LPS; format: cell-based; conditions: HEK293
Sequence (O00206 whole entry): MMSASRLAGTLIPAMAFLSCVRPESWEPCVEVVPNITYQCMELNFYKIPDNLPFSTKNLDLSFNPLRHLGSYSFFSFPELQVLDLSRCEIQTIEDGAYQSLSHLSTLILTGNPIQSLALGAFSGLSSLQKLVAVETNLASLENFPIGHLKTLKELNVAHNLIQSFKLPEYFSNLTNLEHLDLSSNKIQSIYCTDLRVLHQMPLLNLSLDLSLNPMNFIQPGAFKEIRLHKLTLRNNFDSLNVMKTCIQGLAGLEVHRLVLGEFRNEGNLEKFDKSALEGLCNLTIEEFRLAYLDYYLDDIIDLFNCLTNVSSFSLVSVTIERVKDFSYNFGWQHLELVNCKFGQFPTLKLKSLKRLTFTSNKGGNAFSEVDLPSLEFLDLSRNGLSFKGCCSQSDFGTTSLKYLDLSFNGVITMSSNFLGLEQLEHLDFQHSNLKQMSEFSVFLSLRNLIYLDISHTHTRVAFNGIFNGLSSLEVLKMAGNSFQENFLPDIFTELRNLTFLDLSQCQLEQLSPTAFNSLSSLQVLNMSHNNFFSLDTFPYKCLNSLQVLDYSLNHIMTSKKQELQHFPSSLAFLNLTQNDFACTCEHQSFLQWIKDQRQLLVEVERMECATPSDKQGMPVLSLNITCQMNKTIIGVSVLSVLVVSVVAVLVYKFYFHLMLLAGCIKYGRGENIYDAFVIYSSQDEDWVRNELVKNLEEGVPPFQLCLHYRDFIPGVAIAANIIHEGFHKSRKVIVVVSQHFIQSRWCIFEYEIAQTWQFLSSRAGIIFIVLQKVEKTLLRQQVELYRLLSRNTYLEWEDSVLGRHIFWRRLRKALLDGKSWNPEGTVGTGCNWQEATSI
Answer each item with its documented Activity.
Express it in %; write the number only.

Exercise: Look at this molecule and give its reported Activity. CCOC(=O)c1nc(Nc2cc(Oc3ccccc3Cl)cc([N+](=O)[O-])c2)c2ccccc2n1
Solution: 73.9

Exercise: Could you share which Activity value was measured for CCOC(=O)c1nc(Nc2cc(Oc3ccccc3C(F)(F)F)cc([N+](=O)[O-])c2)c2ccccc2n1 ?
Solution: 58.7

Exercise: Looking for the measured Activity of O=C(O)c1nc(Nc2cc(Oc3ccccc3)cc([N+](=O)[O-])c2)c2ccccc2n1 , can you help?
Solution: 0.6

Exercise: Bench note: what Activity did COC(=O)c1nc(Nc2cc(Oc3ccccc3)cc([N+](=O)[O-])c2)c2ccccc2n1 show?
Solution: 0.4

Exercise: Entry CC(C)OC(=O)c1nc(Nc2cc(Oc3ccccc3Br)cc([N+](=O)[O-])c2)c2ccccc2n1 has what Activity?
Solution: 67.8

Exercise: Name the reported Activity value associated with the molecule CCOC(=O)c1nc(Nc2cc(Oc3ccccc3I)cc([N+](=O)[O-])c2)c2ccccc2n1
Solution: 65.5

Exercise: Fill blank: measured Activity of the molecule CCOC(=O)c1nc(Nc2cc(Oc3ccccc3CC)cc([N+](=O)[O-])c2)c2ccccc2n1 is ____.
Solution: 4.2

Exercise: For O=C(O)c1nc(Nc2cc(Oc3ccccc3Br)cc([N+](=O)[O-])c2)c2ccccc2n1 , what is its reported Activity?
Solution: 1.6

Exercise: Looking for the measured Activity of CCOC(=O)c1nc(Nc2cc(Oc3ccccc3C)cc([N+](=O)[O-])c2)c2ccccc2n1 , can you help?
Solution: 45.5

Exercise: Requested read-out: Activity. Entry: CC(C)CCOC(=O)c1nc(Nc2cc(Oc3ccccc3)cc([N+](=O)[O-])c2)c2ccccc2n1
Solution: 8.4

Exercise: Please report the recorded Activity for CCOC(=O)c1nc(Nc2cc(Oc3ccc4ccccc4c3)cc([N+](=O)[O-])c2)c2ccccc2n1 .
Solution: 0.8

Exercise: Entry CCNC(=O)c1nc(Nc2cc(Oc3ccccc3)cc([N+](=O)[O-])c2)c2ccccc2n1 has what Activity?
Solution: 2.2

Exercise: Report Activity for NC(=O)c1nc(Nc2cc(Oc3ccccc3)cc([N+](=O)[O-])c2)c2ccccc2n1 please.
Solution: 0

Exercise: Please report the recorded Activity for CCOC(=O)c1nc(Nc2cc(Oc3ccccc3)cc([N+](=O)[O-])c2)c2ccccc2n1 .
Solution: 49.1

Exercise: Can you look up the measured Activity of Nc1cc(Nc2nc(C(=O)O)nc3ccccc23)cc(Oc2ccccc2)c1 for me?
Solution: 1.1

Exercise: Need Activity of CCOC(=O)c1nc(Nc2cc(Oc3c(C)cccc3C)cc([N+](=O)[O-])c2)c2ccccc2n1 , thanks.
Solution: 0.6
